experiment-description: probe aEGFR binding to arrayed compounds – biochemical, biotinylated probe, 635/667 nm fluorescence, primary screen (AID 1097);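 also: probe is a biotinylated anti-EGFR antibody binding compounds printed on slides; score combines fluorescence near 667 nm and signal to noise of each spot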
protocol-conditions: small-molecule microarray, higher = more signal
Measured composite z-score values are reported for all entries that follow.
measured-quantity: composite z-score

> print(dat)
                                   compound  readout.value
1  COCCCNC(=O)[C@]1(CCS(=O)(=O)c2ccccc2)N=C(c2ccc(OCCCO)cc2)O[C@@H]1c1ccccc1          0.141
2  CC1=C2[C@@H](CCc3ccccc3)OB(O)C[C@@H]2[C@@H]2C(=O)C=CC(=O)[C@@H]2C1         0.0484
3  N#Cc1ccc(NN2C(C(O)c3ccco3)C=CC3C(=O)N(c4ccccc4)C(=O)C32)cc1 (stereo not drawn)        -0.0411

---

study-system: Torsin-1A (Homo sapiens)
experiment-description: TOR1A wild-type binding on microarray – cell lysate, small-molecule microarray, lysate, 635/667 nm, primary screen (AID 1149)
protocol-conditions: COS7 hTOR1A-WT lysate, 635 nm fluorescence, higher = more signal
measured-quantity: composite z-score

> print(dat)
                                   molecule              study.system  readout.value
1  CC(C)(C)OC(=O)CC[C@]1(C(=O)N2CCCCC2)N=C(c2ccc(OCCCO)cc2)O[C@H]1c1ccccc1CN=[N+]=[N-]  Torsin-1A (Homo sapiens)          0.635
2  COc1ccc(C(=O)Nc2ccc3c(c2)[C@]2(O[C@@H](CCO)[C@H]([Si](C)(C)c4ccc(OC)cc4)[C@H]2C)C(=O)N3Cc2ccccc2)cc1  Torsin-1A (Homo sapiens)          0.816
3  O=C(C=C(CC(O)c1cccc(Cl)c1)OCCF)OCCF (centres undefined)  Torsin-1A (Homo sapiens)         -0.489
4  O=C1C[C@@](C(=O)O)(c2ccc([N+](=O)[O-])cc2)[C@@H](c2ccc(CO)cc2)N1CC12CC3CC(CC(C3)C1)C2  Torsin-1A (Homo sapiens)          0.734
5  COc1ccccc1CN1C(=O)c2ccccc2[C@@]2(Cc3ccccc3N(C3CC3)C2=O)[C@@H]1c1ccc(CO)cc1  Torsin-1A (Homo sapiens)          -1.68
6  COCCCNC(=O)[C@]1(Cc2ccccc2)N=C(c2ccc(OCCCO)cc2)O[C@@H]1c1ccccc1N=[N+]=[N-]  Torsin-1A (Homo sapiens)           1.04
7  C[N+](C)(C)CCCCCCNC(=O)[C@H]1C[C@H]2C(=O)N3CCC[C@H]3C(=O)N2[C@H]1c1cccc(OCCO)c1  Torsin-1A (Homo sapiens)           1.98
8  [N-]=[N+]=NCc1ccccc1C[C@]1(C(=O)NCCN2CCOCC2)N=C(c2ccc(OCCCO)cc2)O[C@H]1c1ccccc1  Torsin-1A (Homo sapiens)           1.39
9  COCCCNC(=O)[C@@H]1c2ccccc2C(=O)N(Cc2cc(F)cc(C(F)(F)F)c2)[C@H]1c1ccc(CO)cc1  Torsin-1A (Homo sapiens)          -2.22

---

study-system: Neurogenic locus notch homolog protein 2 (Homo sapiens)
experiment-description: small molecules binding Notch2 protein – biochemical, small-molecule microarray, 635 nm fluorescence, stem cell growth factors, primary screen (AID 1073)
protocol-conditions: higher = more signal
Measured composite z-score values are reported for all entries that follow.

compound	composite z-score
COCCOC(=O)N1C(=O)[C@@]2(c3cc(C#CCNC(N)=O)ccc31)[C@H](c1ccc(OCCO)cc1)N1[C@H](c3ccccc3)[C@H](c3ccccc3)OC(=O)[C@H]1[C@@H]2C(=O)N1CCN(c2ncccn2)CC1	1.04
COC(=O)C(CC#Cc1ccc2c(c1)[C@]1(C(=O)N2)[C@H](C(=O)N2CCc3cc(OC)c(OC)cc3C2)[C@H]2C(=O)O[C@H](c3ccccc3)[C@H](c3ccccc3)N2[C@@H]1c1ccc(O)cc1)C(=O)OC	1.32
CC(C)C(CO)N1C(=O)[C@@H]2[C@H]3C(=O)OCC=C[C@H]3OC23C=CCN(Cn2nnc4ccccc42)C(=O)[C@@H]13 (some centres not stated)	-1.06
COc1ccc([Si](C)(C)[C@H]2[C@H](CCn3cc(CCO)nn3)O[C@@]3(C(=O)N(Cc4cccc(N5C(=O)c6cccc7cccc5c67)c4)c4ccccc43)[C@@H]2C)cc1	0.45
COCCCNC(=O)[C@@H]1c2ccccc2C(=O)N(Cc2cc(F)cc(C(F)(F)F)c2)[C@H]1c1ccc(CO)cc1	-0.984
CCOC(=O)C[C@H]1[C@H](OC(=O)Cc2ccc3c(c2)OCO3)[C@@H](NC(=O)c2ccccc2)c2cc(OCCCO)ccc2N1C(=O)c1ccc2ccccc2n1	0.671
C=CC[C@]1(C(=O)N(C)C)N=C(c2ccc(OCCCO)cc2)O[C@H]1c1ccccc1	0.353
CC(C)C[C@@H]1NC(=O)[C@@H]2C[C@H](C(=O)NCCCC[N+](C)(C)C)[C@H](c3cccc(OCCO)c3)N2C1=O	-0.884
O=C1OCC=C[C@H]2OC34C=CCN(CCN5CCOCC5)C(=O)[C@H]3N(CCCCCO)C(=O)[C@@H]4[C@@H]12 (some centres not stated)	0.0385
CCOc1cc(C(O)C2C=CC3C(=O)NC(=O)C3N2Nc2ccccn2)ccc1O (configuration not stated)	0.257
COCCOC(=O)N1C(=O)[C@@]2(c3cc(C#Cc4ccc(OC)cc4)ccc31)[C@H](C(=O)N1CCc3cc(OC)c(OC)cc3C1)[C@H]1C(=O)O[C@H](c3ccccc3)[C@H](c3ccccc3)N1[C@@H]2c1ccc(O)cc1	1.47
CCOC(=O)C[C@H]1[C@H](OC(=O)c2ccc(C(=O)c3ccccc3)cc2)[C@@H](NC(=O)C2CCCCC2)c2cc(OCCCO)ccc2N1C(=O)Cc1ccc(OC)cc1	0.376
CN(C)CCCC[C@@H]1NC(=O)[C@H]2C[C@@H](C(=O)NCCCCCCNC(=O)CS)[C@@H](c3ccc(O)cc3)N2C1=O	-0.549
CC(C)N1C(=O)c2ccccc2[C@](C)(C(=O)O)[C@@H]1c1ccc(CO)cc1	-0.663
C=CCNC(=O)[C@H]1[C@@H]2C(=O)O[C@@H](c3ccccc3)[C@@H](c3ccccc3)N2[C@@H](c2ccc(O)cc2)[C@]12C(=O)N(C(=O)OCCOC)c1ccc(C#CC3(O)CCCCCC3)cc12	0.793
CC1CC/C=C\[C@H]2OC34C=CCN(c5ccc(Cl)cc5)C(=O)[C@H]3N(C(CO)C(C)C)C(=O)[C@]4(C)C2C(=O)O1 (some centres not stated)	-0.594
CCCNC(=O)[C@@H]1c2ccccc2C(=O)N(CC23CC4CC(CC(C4)C2)C3)[C@H]1c1ccc(CO)cc1	1.56
